System under test: UniProt P43116
Test description: hEP2 b-arrestin assay (PathHunter HEK 293 PTGER2 b-arrestin cells)
Format: cell-based
Assay conditions: antagonistic activity on hEP2; mean where measured multiple times
pIC50: −log10 of the molar value.
# label = bin(measured pIC50), where bins are zone 1 = under 7, zone 2 = from 7 up to 8, zone 3 = 8 and over

Q: For this molecule, which bin applies? CCOc1cc(-c2cc(NCCn3c(C)cc4c(Cl)cccc43)ncn2)ccc1C(=O)O
Result: zone 3

Q: For this molecule, which bin applies? CCOc1cc(-c2cc(NCCn3c(C)cc4cc(F)c(F)c(F)c43)ncn2)sc1C(=O)O
Result: zone 3

Q: For this molecule, which bin applies? CCOc1cc(-c2cc(NCCn3c(C)cc4c(OC)ccc(F)c43)ncn2)ccc1C(=O)O
Result: zone 2

Q: For this molecule, which bin applies? CCOc1cc(-c2cc(NCCn3c(C)cc4c(F)cc(F)c(F)c43)ncn2)sc1C(=O)O
Result: zone 3

Q: For this molecule, which bin applies? CCc1cccc2c1cc(C)n2CCNc1cc(-c2ccc(C(=O)O)c(CC(C)C)c2)ncn1
Result: zone 1

Q: For this molecule, which bin applies? CCCc1cc(-c2cc(NCCn3c(C)cc4cc(OC)cc(F)c43)ncn2)cc(Cl)c1C(=O)O
Result: zone 1

Q: For this molecule, which bin applies? COc1cc(F)cc2c1cc(C)n2CCNc1cc(-c2cc(Cl)c(C(=O)O)c(Cl)c2)ncn1
Result: zone 2

Q: For this molecule, which bin applies? COc1cc(-c2cc(NCCn3c(C)cc4c(C)ccc(F)c43)ncn2)cc(C)c1C(=O)O
Result: zone 2

Q: For this molecule, which bin applies? CCOc1cc(-c2cc(NCCn3c(C)cc4c(F)ccc(Cl)c43)ncn2)ccc1C(=O)O
Result: zone 3

Q: For this molecule, which bin applies? CNc1cc(-c2cc(NCCn3c(C)cc4c(C)ccc(F)c43)ncn2)ccc1C(=O)O
Result: zone 3

Q: For this molecule, which bin applies? Cc1ccc(F)c2c1cc(C)n2CCNc1cc(-c2ccc(-c3ccn[nH]3)cc2)ncn1
Result: zone 2

Q: For this molecule, which bin applies? CCc1cc(-c2cc(NCCn3c(C)cc4c(OC)ccc(Cl)c43)ncn2)ccc1C(=O)O
Result: zone 2

###

System under test: PTRGER4 (EP4) (Homo sapiens (Human), UniProt P35408)
Sequence (P35408 whole entry, looked up): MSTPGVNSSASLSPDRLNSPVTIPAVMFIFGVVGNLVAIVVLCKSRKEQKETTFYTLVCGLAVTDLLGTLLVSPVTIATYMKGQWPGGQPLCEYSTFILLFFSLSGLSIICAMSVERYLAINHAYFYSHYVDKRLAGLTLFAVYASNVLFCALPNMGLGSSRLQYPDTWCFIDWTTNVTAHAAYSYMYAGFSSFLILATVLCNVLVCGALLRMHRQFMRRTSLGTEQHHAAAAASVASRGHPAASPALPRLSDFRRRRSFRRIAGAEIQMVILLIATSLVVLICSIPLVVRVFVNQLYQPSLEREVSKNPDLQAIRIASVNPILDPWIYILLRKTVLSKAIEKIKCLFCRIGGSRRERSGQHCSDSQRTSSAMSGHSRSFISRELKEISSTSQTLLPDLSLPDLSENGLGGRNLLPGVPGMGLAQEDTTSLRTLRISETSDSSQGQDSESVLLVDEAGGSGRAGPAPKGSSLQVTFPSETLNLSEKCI
Test description: hEP4 b-arrestin assay (PathHunter HEK 293 PTGER4 b-arrestin cells)
Assay type: cell-based
Assay conditions: antagonistic activity on hEP4; mean where measured multiple times
Reported endpoint: pIC50
pIC50 here is simply -log10 of the concentration when that concentration is written in mol/L.

Q: Please supply the value of reported pIC50 for the item COc1ccc(F)c2c1cc(C)n2CCNc1cc(-c2ccc(S(=O)(=O)O)cc2)ncn1
Result: 6.42

Q: Please supply the value of reported pIC50 for the item CCC1NC(=O)c2ccc(-c3cc(NCCn4c(C)cc5c(OC)cccc54)ncn3)cc21 (racemic)
Result: 6.65

Q: Please supply the value of reported pIC50 for the item Cc1ccc(F)c2c1cc(C)n2CCNc1cc(-c2cc(Cl)c(C(=O)O)s2)ncn1
Result: 6.91

Q: Please supply the value of reported pIC50 for the item COc1cccc2c1cc(C)n2CCNc1cc(-c2ccc3[nH]c(C)nc3c2)ncn1
Result: 6.32

Q: Please supply the value of reported pIC50 for the item COc1ccc(F)c2c1cc(C)n2CCNc1cc(-c2ccc(-c3cnco3)cc2)ncn1
Result: 6.98

Q: Please supply the value of reported pIC50 for the item Cc1cc2c(F)ccc(F)c2n1CCNc1cc(-c2ccc(C(=O)O)c(CCC(C)C)c2)ncn1
Result: 6.02

Q: Please supply the value of reported pIC50 for the item COc1ccc(F)c2c1cc(C)n2CCNc1cc(-c2ccc3c(C(=O)O)n[nH]c3c2)ncn1
Result: 6.13

Q: Please supply the value of reported pIC50 for the item Cc1cc(F)c(F)c2c1cc(C)n2CCNc1cc(-c2ccc(-c3c[nH]cn3)cc2)ncn1
Result: 7.15

Q: Please supply the value of reported pIC50 for the item Cc1ccc(F)c2c1cc(C)n2CCNc1cc(-c2ccc(N)cc2)ncn1
Result: 6.21

Q: Please supply the value of reported pIC50 for the item CCOc1cc(-c2cc(NCCn3c(C)cc4cc(OC)cc(F)c43)ncn2)sc1C(=O)O
Result: 6.90

Q: Please supply the value of reported pIC50 for the item CCOc1cc(-c2cc(NCCn3c(C)cc4c(OC)ccc(Cl)c43)ncn2)cc(C)c1C(=O)O
Result: 6.39

Q: Please supply the value of reported pIC50 for the item COc1cc(F)cc2c1cc(C)n2CCNc1cc(-c2cc(F)c(C(=O)O)s2)ncn1
Result: 7.24

Q: Please supply the value of reported pIC50 for the item COc1ccc(F)c2c1cc(C)n2CCNc1cc(-c2ccc(N)cc2)ncn1
Result: 6.39

Q: Please supply the value of reported pIC50 for the item CCNc1cc(-c2cc(NCCn3c(C)cc4c(OC)cccc43)ncn2)cc(Cl)c1C(=O)O
Result: 6.55

Q: Please supply the value of reported pIC50 for the item COc1ccc(F)c2c1cc(C)n2CCNc1cc(-c2cc(C)c(C(=O)O)s2)ncn1
Result: 7.34

Q: Please supply the value of reported pIC50 for the item CNc1cc(-c2cc(NCCn3c(C)cc4c(OC)ccc(F)c43)ncn2)ccc1C(=O)O
Result: 7.43

###

System under test: EP4 (Homo sapiens (Human), UniProt P35408)
Test description: hEP4 cAMP assay (BT549 breast cancer cells, HTRF cAMP)
Type: cell-based
Assay conditions: antagonistic activity; mean values where measured multiple times
Reported endpoint: pIC50
pIC50 here is simply -log10 of the concentration when that concentration is written in mol/L.

Q: Please supply the value of reported pIC50 for the item COc1ccc(F)c2c1cc(C)n2CCNc1cc(-c2cc(OC(C)C)c(C(=O)O)s2)ncn1
Result: 8.15

Q: Please supply the value of reported pIC50 for the item CCCc1cc(-c2cc(NCCn3c(C)cc4c(OC)ccc(F)c43)ncn2)cc(Cl)c1C(=O)O
Result: 7.25

Q: Please supply the value of reported pIC50 for the item COc1ccc(F)c2c1cc(C)n2CCNc1cc(-c2ccc(C(=O)O)c(OC3CCC3)c2)ncn1
Result: 7.18

Q: Please supply the value of reported pIC50 for the item COc1cc(F)cc2c1cc(C)n2CCNc1cc(-c2ccc(-c3oc(CCC(=O)O)nc3C)cc2)ncn1
Result: 6.59

Q: Please supply the value of reported pIC50 for the item COc1cccc2c1cc(C)n2CCNc1cc(-c2ccc(C(=O)O)c(NCC(F)(F)F)c2)ncn1
Result: 6.93

Q: Please supply the value of reported pIC50 for the item COc1cccc2c1cc(C)n2CCNc1cc(-c2ccc(-c3csc(C)n3)cc2)ncn1
Result: 6.27

Q: Please supply the value of reported pIC50 for the item CCCN1Cc2cc(-c3cc(NCCn4c(C)cc5c(OC)ccc(F)c54)ncn3)ccc2C1=O
Result: 6.64

Q: Please supply the value of reported pIC50 for the item Cc1cc2ccccc2n1CCNc1cc(-c2ccc3c(=O)[nH]oc3c2)ncn1
Result: 6.20

###

System under test: PTGER2 (EP2) (Homo sapiens (Human), UniProt P43116)
Sequence (P43116 whole entry): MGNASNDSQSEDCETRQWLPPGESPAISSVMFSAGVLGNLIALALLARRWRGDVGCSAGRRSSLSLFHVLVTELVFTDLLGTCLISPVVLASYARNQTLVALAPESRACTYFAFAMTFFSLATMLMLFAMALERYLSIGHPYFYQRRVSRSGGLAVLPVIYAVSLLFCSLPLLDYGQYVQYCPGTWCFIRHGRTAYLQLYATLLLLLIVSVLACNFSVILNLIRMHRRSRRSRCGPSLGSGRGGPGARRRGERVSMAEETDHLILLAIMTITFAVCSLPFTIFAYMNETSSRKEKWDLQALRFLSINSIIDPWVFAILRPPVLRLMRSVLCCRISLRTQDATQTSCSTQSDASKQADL
Test description: hEP2 b-arrestin assay (PathHunter HEK 293 PTGER2 b-arrestin cells)
Format: cell-based
Assay conditions: hEP2 b-arrestin assay (values without asterisk)
Reported endpoint: IC50
Just the number plus its unit, please.

Q: Please supply the value of reported IC50 for the item CCSc1cc(C(=O)O)cc(-c2cc(NCCn3c(C#N)cc4c(OC)ccc(F)c43)ncn2)c1 [Example 922]
Result: 19 nM

Q: Please supply the value of reported IC50 for the item COc1ccc(F)c2c1cc(C#N)n2CCNc1cc(-c2ccc3oc(=O)n(C)c3c2)ncn1 [Example 973]
Result: 15 nM

Q: Please supply the value of reported IC50 for the item COc1ccc(F)c2c1cc(C#N)n2CCNc1cc(-c2c(C)noc2C)ncn1 [Example 993]
Result: 80 nM

Q: Please supply the value of reported IC50 for the item COc1cc(-c2cc(NCCn3c(C#N)cc4c(OC)ccc(F)c43)ncn2)ccc1-c1cc(O)no1 [Example 855]
Result: 6 nM

Q: Please supply the value of reported IC50 for the item COc1ccc(F)c2c1cc(C#N)n2CCNc1cc(-c2ccc3[nH]ccc3c2)ncn1 [Example 994]
Result: 7 nM

Q: Please supply the value of reported IC50 for the item CCNC(=O)Nc1ccc(-c2cc(NCCn3c(C#N)cc4c(OC)ccc(F)c43)ncn2)cc1OC [Example 982]
Result: 18 nM

Q: Please supply the value of reported IC50 for the item COc1ccc(F)c2c1c(F)c(C#N)n2CCNc1cc(-c2cc(C(F)(F)F)c(C(=O)O)s2)ncn1 [Example 1059]
Result: 54 nM

Q: Please supply the value of reported IC50 for the item COc1ccc(F)c2c1cc(C#N)n2CCNc1cc(-c2ccc(O)c(Cl)c2)ncn1 [Example 867]
Result: 8 nM

Data provenance: patent US12011444B2
